tested on: human prostate carcinoma cells (PC3) adhesion to Vitronectin; assay: Adhesion assay on vitronectin, PC3 cells; type: cell-based; conditions: average of 3 experiments
Metric name: pIC50
Keep in mind that pIC50 stands for -log10 of concentration in molar terms.

stdin: Which pIC50 value belongs to CC(C)[C@@H]1NC(=O)[C@@H](Cc2ccccc2)NC(=O)[C@H](CC(=O)O)NC(=O)CNC(=O)[C@H](CCCNC(=N)N)NC1=O [KESSLER, cyclo (Arg-Gly-Asp-D-Phe-Val)] ?
stdout: 5.60

====

tested on: bovine microvascular endothelial cells (BMEC) adhesion to Fibronectin; assay: Adhesion inhibition of BMEC to fibronectin; format: cell-based; details: BMEC; fibronectin-coated plates; 100 to 0.6 μM tested; ± SD
pIC50: −log10 of the molar value.
Metric name: pIC50

stdin: Which pIC50 value belongs to CC(C)[C@@H]1NC(=O)[C@@H](Cc2ccccc2)NC(=O)[C@H](CC(=O)O)NC(=O)CNC(=O)[C@H](CCCNC(=N)N)NC1=O [KESSLER, cyclo (Arg-Gly-Asp-D-Phe-Val)] ?
stdout: < 4.00
